Where do the numbers come from? From patent US10005782B2.

# assay-target: Recombinant Btk (Homo sapiens (Human))
# Sequence (Q06187 whole entry): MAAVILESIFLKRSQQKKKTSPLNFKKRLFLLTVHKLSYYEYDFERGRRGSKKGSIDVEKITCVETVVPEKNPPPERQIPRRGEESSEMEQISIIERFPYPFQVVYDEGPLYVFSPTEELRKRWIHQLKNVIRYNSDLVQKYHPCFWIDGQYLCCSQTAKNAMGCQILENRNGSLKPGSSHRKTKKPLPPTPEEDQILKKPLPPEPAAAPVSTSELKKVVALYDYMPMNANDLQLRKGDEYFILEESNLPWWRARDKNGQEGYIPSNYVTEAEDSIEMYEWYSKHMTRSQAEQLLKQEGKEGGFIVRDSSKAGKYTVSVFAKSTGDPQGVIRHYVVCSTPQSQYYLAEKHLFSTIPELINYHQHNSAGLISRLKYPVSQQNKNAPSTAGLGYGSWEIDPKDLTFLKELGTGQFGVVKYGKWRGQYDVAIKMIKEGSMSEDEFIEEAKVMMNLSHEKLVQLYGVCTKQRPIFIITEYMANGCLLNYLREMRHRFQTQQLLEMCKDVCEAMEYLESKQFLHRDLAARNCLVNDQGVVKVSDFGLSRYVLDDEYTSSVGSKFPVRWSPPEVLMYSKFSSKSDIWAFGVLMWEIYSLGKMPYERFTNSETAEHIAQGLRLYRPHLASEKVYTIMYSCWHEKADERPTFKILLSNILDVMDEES
# experimental-protocol: Btk kinase assay (TR-FRET)
# applied-conditions: read-out: IC50 (nM) Btk, 1 hour pre-incubation, ATP at Km

compound	assay-target	IC50
C=CC(=O)Nc1ccccc1C1CCNc2c(C(N)=O)c(-c3ccc(F)c(F)c3)nn21 (centres unmarked)	Recombinant Btk (Homo sapiens (Human))	3.7 nM
C=CC(=O)Nc1ccccc1C1CCNc2c(C(N)=O)c(-c3ccc(OC)c(OC)c3)nn21 (centres unmarked)	Recombinant Btk (Homo sapiens (Human))	3.7 nM

* * *

# assay-target: Recombinant Btk (Homo sapiens (Human))
# experimental-protocol: Btk kinase assay (TR-FRET)
# applied-conditions: read-out: IC50 (nM) Btk, 1 hour pre-incubation, ATP at Km, listed as 2a (peak 1)
experimental-endpoint: IC50 (nM)

compound	experimental-endpoint	quantitative-result
NC(=O)c1c(-c2ccc(Oc3ccccc3)cc2)nn2c1NCCC2c1cccc(N)c1 (single isomer, unassigned)	IC50	270
